Test system: UACC-62 melanoma
Assay: NCI tumour cell line growth inhibition, 48 h; in the data active = GI50 below about 0.43 µM; inactive = the rest
Classes used: active, inactive

* O=S(=O)(/C=C/C=C/S(=O)(=O)c1ccccc1)c1ccccc1 | active
* CCN(Cc1ccc(F)cc1)c1ccc(CO)c(Cl)c1 | active
* CS(=O)(=O)c1ccc(N/N=C/c2c(-c3ccc(S(C)(=O)=O)cc3)[nH]c3ccc(F)cc23)cc1 | inactive

###

Below, each entry is listed with its recorded TGI.
Tested on: KM12 colon
Test: NCI tumour cell line growth inhibition, 48 h
observed.property: TGI (µM)

• Cc1cc(NC(=O)c2ccc(NS(=O)(=O)CCO)cc2N2CCC3(CC2)CC3)nc(N2CCC(F)(F)CC2)n1 = 16.9
• COc1cc(-c2c[nH]c3ccccc23)nc(-c2c[nH]c3ccccc23)n1 = 16.2
• Nn1c(CCCl)nc2c(Br)cc(Br)cc2c1=O = 38.1
• C[C@H](c1ccc(Cl)cc1N)N1C(=O)c2cc(I)ccc2N(CCCN2CCN(C)CC2)C(=O)[C@@H]1c1ccc(Cl)cc1 = 3.24

###

Below, each of the molecules is paired with its reported TGI value.
Test system: CCRF-CEM leukemia
Experiment: NCI tumour cell line growth inhibition, 48 h
observed.property: TGI

• COc1cc2c(c(OC)c1OC)-c1ccc(OC)c(=O)cc1[C@@H](NC(=O)CCl)CC2 = > 33.3 µM
• CCc1cc(-c2nsc(=O)o2)c(S(=O)(=O)CC)s1 = > 100 µM
• COc1ccccc1C1C2=C(COC2=O)OC(C)(C)Oc2cc3c(cc21)OCO3 (stereo not drawn) = > 100 µM

###

Test system: NCI/ADR-RES ovarian
Experiment: NCI tumour cell line growth inhibition, 48 h
observed.property: TGI

* Cn1c(=O)n(-c2c3ccccc3c(Cl)c3ccccc23)n(C(C)(C)C)c1=O | > 100 µM
* CCCCCCCC/C=C\CCCCCCCCNc1ccn(C2OC(COP(=O)(O)OC3CC(n4cc(F)c(=O)[nH]c4=O)OC3CO)C(O)C2O)c(=O)n1 (stereo not drawn) | > 100 µM
* CC(=O)O[C@H]1CC[C@H]2[C@@H]3CCc4cc(O)c(I)cc4[C@H]3CC[C@]12C | 43.2 µM
* Nc1nc(N)c2nc(CNc3ccc(C(=O)CC(CCC(=O)O)C(=O)O)cc3)cnc2n1 (stereo not drawn) | > 100 µM
* C=C(Cl)C(C)(Cl)CCC(Cl)C(C)(C)Cl (stereo not drawn) | > 100 µM
* CCOC(=O)C1C(=O)CC(C)(O)C(C(=O)OCC)C1c1ccc(N(C)C)cc1 (stereo not drawn) | > 100 µM
* CCC1CCc2nc3sc(C(=O)Nc4ccccc4F)c(N)c3cc2C1 (stereo not drawn) | > 100 µM
* CN(C)CCOc1cc2c(c3ccccc13)-c1ccccc1C2=O | 2.64 µM
* O=C1O/C(=C\c2ccc(O)c(Br)c2)C(c2ccc(O)cc2)=C1Cl | 82.4 µM
* COc1cc(-c2c[nH]c3ccccc23)nc(-c2c[nH]c3ccccc23)n1 | 59.6 µM
* CCOC(=O)CSc1nc2ccccc2c(=O)n1N | > 100 µM
* C[C@]12CC[C@@H]3c4ccc(OC(=O)c5ccccc5)cc4CC[C@H]3[C@@H]1CCC2OC(=O)c1cccc2c(=O)c3ccccc3[nH]c12 (stereo partly drawn) | 39.9 µM
* CS(=O)(=O)CCNCc1ccc(-c2ccc3ncnc(Nc4ccc(OCc5ccccc5)c(C(F)(F)F)c4)c3c2)o1 | > 25 µM
* COc1ccc(NC(=O)C(=O)C(CC2C(=O)NC(=S)NC2=O)C(=O)c2ccc3ccccc3c2)c([N+](=O)[O-])c1 (stereo not drawn) | > 100 µM
* CCOC(=O)C(NNS(=O)(=O)c1ccc(C)cc1)S(=O)(=O)C(F)(F)C(F)(F)C(F)(F)C(F)(F)F (stereo not drawn) | > 100 µM
* CC1=CC(C)C(C)N(CCNC(=O)Nc2ccccc2)c2ccccc21 (stereo not drawn) | 67.9 µM
* CCc1cc(-c2nsc(=O)o2)c(S(=O)(=O)CC)s1 | > 100 µM
* CC1(C)C(O)c2ccccc2OC1N1CCN(C2Oc3ccccc3C(O)C2(C)C)CC1 (stereo not drawn) | > 100 µM
